Data provenance: the supplement of paper PMC12669032

Test system: Escherichia coli IAI1
Test: growth AUC relative to DMSO control (median of replicates) (fraction); higher = more growth (less inhibition), active = hit call of the paper
Details: 20 µM; 24 h
Measured attribute: growth AUC
Answer with a number only.

Prompt: Identify measured growth AUC corresponding to "COC(=O)N(C(=O)N1CO[C@@]2(C(=O)OC)Cc3cc(Cl)ccc3C2=N1)c1ccc(OC(F)(F)F)cc1"
Response: 0.939

Prompt: Identify measured growth AUC corresponding to "CCNc1nc(NC(C)C)nc(OC)n1"
Response: 0.999

Prompt: Identify measured growth AUC corresponding to CC/C(=N\OC/C=C/Cl)C1=C(O)CC(C2CCOCC2)CC1=O (stereo not drawn)
Response: 1.03

Prompt: Identify measured growth AUC corresponding to "O=C(O)C(F)(F)C(F)(F)C(F)(F)C(F)(F)C(F)(F)C(F)(F)C(F)(F)C(F)(F)C(F)(F)F"
Response: 1.01

Prompt: Identify measured growth AUC corresponding to "N#CCNC(=O)c1cnccc1C(F)(F)F"
Response: 0.961

Prompt: Identify measured growth AUC corresponding to "CNC(=O)Oc1cc(C)c(S(C)(=O)=O)c(C)c1"
Response: 0.963

Prompt: Identify measured growth AUC corresponding to "COP(=S)(OC)Oc1ccc(S(=O)(=O)N(C)C)cc1"
Response: 0.985

Prompt: Identify measured growth AUC corresponding to CC1(C)OC(c2ccco2)CN1C(=O)C(Cl)Cl (stereo not drawn)
Response: 0.994

Prompt: Identify measured growth AUC corresponding to "CS(=O)(=O)c1ccc(C(=O)C2C(=O)CCCC2=O)c(Cl)c1"
Response: 1.03

Prompt: Identify measured growth AUC corresponding to "Cc1cccc2sc3nncn3c12"
Response: 0.977

Prompt: Identify measured growth AUC corresponding to "COCC(=O)N(c1c(C)cccc1C)N1CCOC1=O"
Response: 1.02

Prompt: Identify measured growth AUC corresponding to O=C(NC(=O)c1c(F)cccc1F)Nc1cc(Cl)c(OC(F)(F)C(F)C(F)(F)F)cc1Cl (stereo not drawn)
Response: 1

Prompt: Identify measured growth AUC corresponding to "COP(=S)(OC)SCN1C(=O)c2ccccc2C1=O"
Response: 0.991

Prompt: Identify measured growth AUC corresponding to COP(=O)(OC)C(O)C(Cl)(Cl)Cl (stereo not drawn)
Response: 1.01

Prompt: Identify measured growth AUC corresponding to "Cc1ccc(NC(=O)c2snnc2C)cc1Cl"
Response: 0.937

Prompt: Identify measured growth AUC corresponding to "Fc1ccc(Oc2ccnc3cc(Cl)cc(Cl)c23)cc1"
Response: 0.97

Prompt: Identify measured growth AUC corresponding to "CC(C)N(Cc1ccccc1)C(=O)C(C)(C)C"
Response: 0.971

Prompt: Identify measured growth AUC corresponding to "COP(=S)(OC)Oc1ccc([N+](=O)[O-])c(Cl)c1"
Response: 0.984

Prompt: Identify measured growth AUC corresponding to "COc1c(Cl)ccc(Cl)c1Cl"
Response: 0.99

Prompt: Identify measured growth AUC corresponding to "COC(=O)NC(=S)Nc1ccccc1NC(=S)NC(=O)OC"
Response: 0.996

Prompt: Identify measured growth AUC corresponding to "COc1cc(OC)nc(Sc2cccc(Cl)c2C(=O)O)n1"
Response: 0.977

Prompt: Identify measured growth AUC corresponding to "CNC(=O)O/N=C/C(C)(C)S(C)(=O)=O"
Response: 1.03

Prompt: Identify measured growth AUC corresponding to "CCOC(=O)C(O)(c1ccc(Cl)cc1)c1ccc(Cl)cc1"
Response: 0.968
